These entries and their values trace back to ChEMBL document CHEMBL3352411.

Biological target: Prostaglandin D2 receptor 2 (Homo sapiens, UniProt Q9Y5Y4)
Sequence (Q9Y5Y4 whole entry): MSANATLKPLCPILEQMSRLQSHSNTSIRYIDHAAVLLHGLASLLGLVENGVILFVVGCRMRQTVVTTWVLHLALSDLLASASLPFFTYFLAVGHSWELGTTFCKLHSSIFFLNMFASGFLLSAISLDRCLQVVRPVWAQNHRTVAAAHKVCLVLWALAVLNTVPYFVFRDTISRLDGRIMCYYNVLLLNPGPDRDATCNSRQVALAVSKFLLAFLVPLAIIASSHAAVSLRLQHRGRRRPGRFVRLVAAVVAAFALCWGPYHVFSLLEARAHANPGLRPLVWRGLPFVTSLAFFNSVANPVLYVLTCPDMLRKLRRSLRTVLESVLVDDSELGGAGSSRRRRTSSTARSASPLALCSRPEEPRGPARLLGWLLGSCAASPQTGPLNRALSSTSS
Experiment: Antagonist activity at CRTh2 receptor (unknown origin) overexpressed in CHOK1 cell membranes assessed as inhibition of [35S]-GTPgammaS binding measured after 2 hrs by liquid scintillation counting analysis
pIC50: −log10 of the molar value.
parameter: pIC50

Use the examples below as a reference point.
molecular_string	system_under_test	pIC50
CCN(Cc1cc(C(F)(F)F)ccc1-n1cc(CC(=O)O)c2ccc(OC)nc21)C(=O)C1CC1	Prostaglandin D2 receptor 2 (Homo sapiens, UniProt Q9Y5Y4)	6.87
CCN(Cc1cc(C(F)(F)F)ccc1-n1cc(CC(=O)O)c2ccc(C)nc21)C(=O)CC1CC1	Prostaglandin D2 receptor 2 (Homo sapiens, UniProt Q9Y5Y4)	8.15
CCN(Cc1cc(C(F)(F)F)ccc1-n1cc(CC(=O)O)c2ccc(C)nc21)C(=O)C1CC1	Prostaglandin D2 receptor 2 (Homo sapiens, UniProt Q9Y5Y4)	8.00
CCN(Cc1cc(Cl)ccc1-n1cc(CC(=O)O)c2ccc(C)nc21)C(=O)C1CC1	Prostaglandin D2 receptor 2 (Homo sapiens, UniProt Q9Y5Y4)	8.28
CCN(Cc1cc(C(F)(F)F)ccc1-c1cn(CC(=O)O)c2cccnc12)C(=O)C1CC1	Prostaglandin D2 receptor 2 (Homo sapiens, UniProt Q9Y5Y4)	7.70

a: CCN(Cc1cc(C(F)(F)F)ccc1-c1cn(CC(=O)O)c2ccc(C(F)(F)F)nc12)C(=O)C1CC1
b: Cc1ccc2c(CC(=O)O)cn(-c3ccc(C(F)(F)F)cc3CN(CCOc3ccccc3)C(=O)C3CC3)c2n1
Hey, which is lower on measured pIC50, a or b ? Return value: the label identifying the chosen record.
a

A: CCN(Cc1cc(C(F)(F)F)ccc1-c1cn(CC(=O)O)c2ccc(C)nc12)C(=O)C1CC1
B: CCN(Cc1cc(C(F)(F)F)ccc1-c1cc(CC(=O)O)c2ccc(C)nn12)C(=O)C1CC1
Lab note: check whether A or B shows the higher recorded pIC50. Return value: the label identifying the chosen record.
B
(B: 8.38, A: 7.77)
